// provenance: ChEMBL document CHEMBL1201862

Measured GI50 by item
System: SK-OV-3
assay_procedure: NCI tumour cell line growth inhibition, 48 h
Activity calls are given as the source filed them. No stated cut-off is given here; in the data, active = GI50 up to about 1.1 µM and inactive = higher.

Some compounds with recorded GI50:
[in] Param item = COC1OC2COC(C)(C)OC2C2OC(C)(C)OC12 (stereo unspecified) ; retrieve measured GI50.
[out] 78.2 µM (inactive)

[in] Param item = O=[N+]([O-])c1ccc(/N=N\c2c(O)ccc3ccccc23)c([N+](=O)[O-])c1 ; retrieve measured GI50.
[out] > 100 µM (inactive)

[in] Param item = CC(C)c1cccc(C(C)C)c1NC(=O)C(=O)CC(=O)CC(c1ccccc1)c1c(O)oc2ccccc2c1=O (stereo unspecified) ; retrieve measured GI50.
[out] > 100 µM (inactive)

Further cases:
[in] Param item = Cc1ccc(S(=O)(=O)Nc2ccccc2C=O)cc1 ; retrieve measured GI50.
[out] 26.8 µM (inactive)

[in] Param item = COc1ccc(OC)c2sc(N3C(=O)/C(=C/c4ccccc4S)N=C3c3ccccc3)nc12 ; retrieve measured GI50.
[out] > 100 µM (inactive)

[in] Param item = COc1ccc([C@@H]2OC(=O)C3C2C(=O)O[C@H]3c2ccc(OC)c(OC)c2)cc1OC (stereo partly specified) ; retrieve measured GI50.
[out] > 100 µM (inactive)

[in] Param item = O=[N+]([O-])c1ccc2nc3c(nc2c1)-c1c2ccccc2cc2cccc-3c12 ; retrieve measured GI50.
[out] 17.5 µM (inactive)

[in] Param item = O=C1C=CC(=O)N1n1c(Cc2ccccc2)n[nH]c1=O ; retrieve measured GI50.
[out] > 100 µM (inactive)

[in] Param item = O=C1c2ccccc2-c2cc([N+](=O)[O-])c([N+](=O)[O-])cc21 ; retrieve measured GI50.
[out] 2.66 µM (inactive)

[in] Param item = Cc1ccc(O)c(-c2cc(-c3cccc(Br)c3)on2)c1 ; retrieve measured GI50.
[out] 21.3 µM (inactive)

[in] Param item = CN(C)C(=S)SCC(=O)Nc1ccccc1 ; retrieve measured GI50.
[out] > 100 µM (inactive)

====

Test system: SNB-75
assay_procedure: NCI tumour cell line growth inhibition, 48 h
Activity calls are given as the source filed them. Cut-off read from the data, not from the text of the source: active = GI50 up to about 1.1 µM and inactive = higher.
Hi! Could you answer with just one of these? 1 (active), 0 (inactive)

# count of solved cases: 5
[in] I'd appreciate the recorded outcome for CC(C)(C)c1cc(C2=NNC(c3ccccc3)C2)cc(C(C)(C)C)c1O (stereo not given) from this test.
[out] 0

[in] I'd appreciate the recorded outcome for CC(C)NC(=O)OCc1c(COC(=O)NC(C)C)c(-c2cc[n+](COC(=O)C(C)C)cc2)n2c1CCC2 from this test.
[out] 0

[in] I'd appreciate the recorded outcome for CC(C)[C@H](NC(=O)OCc1ccccc1)C(=O)N[C@H](/C=C/C(=O)OC(C)(C)C)CO from this test.
[out] 1

[in] I'd appreciate the recorded outcome for O=C(O)Cc1c[nH]c2ccc(F)cc12 from this test.
[out] 0

[in] I'd appreciate the recorded outcome for O=c1oc2c(Br)c(O)c(Br)cc2c2ccccc12 from this test.
[out] 0

Further cases:
[in] I'd appreciate the recorded outcome for N/N=C1\C(=O)N(c2ccc(Cl)c(Cl)c2)C(=O)C1C(=O)Nc1ccc(Cl)c(Cl)c1 (stereo not given) from this test.
[out] 0

[in] I'd appreciate the recorded outcome for COC(=O)c1sc2ncc3c(c2c1N)CC(C)CC3 (stereo not given) from this test.
[out] 0

[in] I'd appreciate the recorded outcome for O=C(O)CNCc1c2ccccc2nc2ccccc12 from this test.
[out] 0

[in] I'd appreciate the recorded outcome for CCN(CC)c1ccc(/N=C2/C=CC(=C(C#N)C#N)c3ccccc32)c(C)c1 from this test.
[out] 0

[in] I'd appreciate the recorded outcome for [Zn+2][N+]12CCN3CCN4CCN(CC1)[PH]432 (stereo not given) from this test.
[out] 0

[in] I'd appreciate the recorded outcome for N#C/C(=C\c1c[nH]c2ccccc12)C(=O)c1ccc(O)c(O)c1 from this test.
[out] 0

[in] I'd appreciate the recorded outcome for CC[C@H](NC1=C(Cl)C(=O)c2c(O)ccc(O)c2C1=O)C(=O)OC from this test.
[out] 0

[in] I'd appreciate the recorded outcome for C=CCn1c(=O)c(C)cn(COCCO)c1=O from this test.
[out] 0

[in] I'd appreciate the recorded outcome for CCC(C)C(N)C(=O)N/N=C\c1c2c(nc3ccccc13)-c1cc3c(c(=O)n1C2)COC(=O)[C@]3(O)CC (stereo not given in full) from this test.
[out] 1

[in] I'd appreciate the recorded outcome for COC(=O)Cc1c(C2=Nc3ccccc3C2(O)CC(=O)OC)[nH]c2ccccc12 (stereo not given) from this test.
[out] 0
